// data source = PubChem BioAssay (NCI)

Test system: UACC-257 melanoma
Assay: NCI tumour cell line growth inhibition, 48 h
READOUT TYPE: TGI

// known answers, use as guide
* COc1cc2ccc(C(=O)NCCCNC(=O)c3ccc4cc(OC)c(OC)cc4c3)cc2cc1OC | > 100 µM
* CC(C(=O)OCc1ccccc1)N(Cc1ccccc1)Cc1ccccc1 (stereo not given) | > 100 µM

*Q* Request - read-out TGI | tested on UACC-257 melanoma | compound CCCC[C@@H](C)/C=C1\CN2CCC[C@H]2[C@@](C)(OCc2ccccc2)[C@@H]1O
*A* > 46.1 µM

*Q* Recall the recorded TGI for CCC(=O)N1C/C(=C/c2ccc(Cl)cc2)C(=O)/C(=C/c2ccc(Cl)cc2)C1 with UACC-257 melanoma and state it.
*A* 3.24 µM

*Q* Kindly state the measured TGI obtained for C(/C=N/NC1=NCCCCN1)=N\NC1=NCCCCN1 with UACC-257 melanoma.
*A* > 100 µM

* * *

System: DU-145 prostate
Test: NCI tumour cell line growth inhibition, 48 h
Recorded TGI, one value per entry.

Solved cases below.
* COc1ccc2c(c1)nc(NNC(=O)c1cnccn1)c1cccn12 | 6.3 µM
* Oc1c(C(Nc2ccccc2Br)c2ccccc2)ccc2cccnc12 (configuration not stated) | > 100 µM
* Cc1ccc(/C=C(\C#N)c2cc3ccccc3n2C)cc1 | > 100 µM
* COc1ccc(C#Cn2nnc3ccccc32)cc1 | > 100 µM
* O=C1c2cc(Cc3ccccc3)c(=O)c(Cc3ccccc3)cc2C(=O)c2cc(Cc3ccccc3)c(=O)c(Cc3ccccc3)cc21 | > 100 µM

*Q* # lookup: TGI of COc1ccc([C@H](CC(=O)O)N2CCN(CCCc3ccc4c(n3)NCCC4)C2=O)cn1
*A* 12.5 µM

*Q* # lookup: TGI of C=CC(=O)N1CCC(c2ccc(C(N)=O)c(-c3ccc(Oc4ccccc4)cc3)n2)CC1
*A* > 100 µM

*Q* Look up TGI for this compound: O=C(Nc1sccc1S(=O)(=O)c1ccc(Cl)cc1)c1ccc(F)cc1F
*A* > 100 µM

*Q* Find the recorded TGI belonging to COc1ccc(-c2cc(=O)n(-c3nc4ccccc4[nH]3)[nH]2)cc1OC and report it.
*A* > 100 µM

*Q* Could you tell me which TGI is on file for Cc1cc(C)c2c(c1)CC1(Cc3cc(C)c(C)cc3C1=O)C2=O (configuration not stated) ?
*A* > 100 µM

*Q* # input compound: NC(=N\N=C/c1ccc(O)cc1)/C(N)=N\N=C/c1ccc(O)cc1 ; wanted: its TGI
*A* > 100 µM

*Q* Which TGI value belongs to O=[N+]([O-])c1cc[n+]([O-])c2ccccc12 ?
*A* 0.173 µM

*Q* Item CCCCc1ccc(Nc2ncc3ncn(COCCO)c3n2)cc1 has what recorded TGI?
*A* > 100 µM

*Q* Tell me the measured TGI of Cn1cccc1-c1ccc(-c2ccc(CO)[se]2)[se]1 , please.
*A* 70.1 µM

*Q* Dear colleague, I am looking for the recorded TGI of the following compound: CC(=O)n1cc(C2CC23N=C(c2ccccc2)OC3=O)c2ccccc21 (configuration not stated)
*A* 33.2 µM

*Q* Look up TGI for this compound: CO/N=C(\COc1ccc2c(=O)c3ccccc3oc2c1)c1ccccc1
*A* 61.4 µM

*Q* I have this compound here, CCCCC(SC(=S)N1CCCC1)C(=O)Nc1nc(CC(=O)OCC)cs1 (configuration not stated) , and I need its recorded TGI.
*A* > 100 µM

*Q* Look at this compound and give its reported TGI. C=C(C)[C@@H]1CCC=C2CC[C@]3(C)[C@H](CC[C@@H]4[C@@]5(C)CCCNC(C)(C)[C@@H]5CC[C@]43C)[C@H]21
*A* 3.57 µM

*Q* // query TGI value for entry O=[N+]([O-])c1cccc(/C=N/NC2=CS(=O)(=O)C=C2)c1
*A* > 100 µM

*Q* # input compound: Fc1cccc(F)c1C1SCc2nc3cc(Cl)c(Cl)cc3n21 (configuration not stated) ; wanted: its TGI
*A* > 100 µM

*Q* For the compound Cc1cc(S(=O)(=O)Nc2nc3ncccc3[nH]2)c(S)cc1Cl , what TGI is on record?
*A* > 100 µM

*Q* # get_value(readout='TGI', item= COc1ccc2c(c1)/C(=C\c1ccncc1)C(=O)N2 )
*A* 34.3 µM
